Data origin, for the record: PubChem BioAssay

- System: Noggin (protein binding on small-molecule microarray)
- Assay Info: Noggin binders on small-molecule microarray, primary screen, biochemical, 635/667 nm fluorescence (AID 1095);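 note: score merges 667 nm feature fluorescence with signal to noise over triplicate slides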
- Test Settings: 635 nm fluorescence, higher = more signal
Measured Endpoint: composite z-score

Worked examples, 5 molecules total:
Molecule	Measured Endpoint	Test Result
CCCC=C(CCC)[C@@H](NC(=O)c1ccc(C(F)(F)F)cc1)c1ccccc1	composite z-score	-0.0491
Cc1ccc(N2C(=O)c3ccccc3[C@](C)(C(=O)O)[C@@H]2c2ccc(CO)cc2)nc1	composite z-score	-2.06
CN(C)CCCC[C@@H]1NC(=O)[C@@H]2C[C@H](C(=O)NCCCCCNC(=O)CS)[C@H](c3ccc(O)cc3)N2C1=O	composite z-score	1.88
O=C1NC(=O)C2C1C=CC(C(O)C=Cc1ccc([N+](=O)[O-])cc1)N2Nc1ccccn1 (stereo unspecified)	composite z-score	0.289
O=C1c2ccccc2[C@](Cc2ccccc2I)(C(=O)NCc2ccccc2)[C@H](c2ccc(CO)cc2)N1Cc1ccccc1C(F)(F)F	composite z-score	-1.05

Req: Could you tell me which composite z-score is on file for CC(C)[Si]1(C(C)C)OCc2cc(C3CC3)nc(-c3ccccc3)c21 ?
Resp: -0.246

* * *

A collection of molecules and their measured composite z-score
- Tested on: Lefty1
- Assay Info: Lefty1 binders on small-molecule microarrays, primary screen, biochemical, small-molecule microarray, 635/667 nm fluorescence (AID 1139)
- Test Settings: small-molecule microarray binding, fluorescence 635/667; higher = more signal
Answer with a number only.

Molecule	Study Target	Test Result
O=C1O[C@H](c2ccccc2)[C@H](c2ccccc2)N2[C@H]1[C@@H](C(=O)Nc1nc3ccccc3s1)[C@]1(C(=O)Nc3ccc(C#CC4=CCCCC4)cc31)[C@H]2c1ccccc1OCCO	Lefty1	0.966
C=CC[C@]1(C(=O)O)N=C(c2ccc(OCCCO)cc2)O[C@H]1c1ccccc1	Lefty1	-1.09
NC(=O)NCC#Cc1ccc2c(c1)[C@]1(C(=O)N2)[C@H](c2ccccc2OCCO)N2[C@H](c3ccccc3)[C@H](c3ccccc3)OC(=O)[C@H]2[C@@H]1C(=O)N1CCN(c2ncccn2)CC1	Lefty1	0.347
CCCC=C(CCC)[C@@H](NS(=O)(=O)c1cccc(C(F)(F)F)c1)c1ccc(C(=O)OC)cc1	Lefty1	0.0304

Req: Given the entry COC(=O)C1=CC(c2ccc(CO)cc2)=CC(c2cccs2)N(Cc2cccc(OC(F)(F)F)c2)C=C1C(=O)OC (stereo not given) , what composite z-score was observed with Lefty1?
Resp: 0.0703

Req: Given the entry CC(C)[C@H]1NC(=O)[C@@]23C(=O)N[C@@H](Cc4ccccc4)C2[C@H](C)[C@@]2(C)O[C@H]2C3/C=C/C/C=C\CNC(=O)[C@H](C)NC1=O (stereo not given in full) , what composite z-score was observed with Lefty1?
Resp: -0.62

Req: Given the entry C[C@@H]1CC[C@H]2C(=O)N3[C@@H](CC[C@@H](C)[C@@H]3c3cccc(N4CCOCC4)c3)C(=O)N2[C@H]1c1cccc(Br)c1 , what composite z-score was observed with Lefty1?
Resp: 1.15

* * *

- Assay Info: E. coli DRC41 culture turbidity changes, primary screen, E. coli filamentation inducer project, strain DRC41, OD650, 48 h (AID 1152);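 note: E. coli MC1000 strain DRC41 lacking acrAB efflux pump and sulA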
- Test Settings: E. coli DRC41 (acrAB sulA), higher = more signal, called active from +8 up or from −8 down
z-score of 0.8 or higher: true. Under 0.8: false.

Example entries begin here.
Compound	Class Name
COC(=O)[C@@]1(Cc2ccc(OC)cc2)[C@H]2c3cc(C(=O)N(C)C)n(CCc4ccc(OC)c(Br)c4)c3C[C@H]2CN1C(=O)c1ccccc1	false
Cc1ccc(S[C@]2(C(=O)NCCCN(C)C)CC(=O)N(C3CCCCC3)[C@@H]2c2ccc(CO)cc2I)cc1	true
COCCOC(=O)N1C(=O)[C@@]2(c3cc(C#CCNC(N)=O)ccc31)[C@H](c1ccc(OCCO)cc1)N1[C@H](c3ccccc3)[C@H](c3ccccc3)OC(=O)[C@H]1[C@@H]2C(=O)N1CCCCCCC1	true
C=CCc1cccc([C@H]2N[C@H](C(=O)O)CC[C@@H]2C)c1	false
C=CCN1C(=O)[C@]2(O[C@H](CCn3cc(CCO)nn3)[C@@H]([Si](C)(C)c3ccc(OC)cc3)[C@@H]2C)c2cc(NC(=O)c3ccc(OC)cc3)ccc21	true

Req: Confirm if z-score reported for the compound CCCC=C(CCC)[C@@H](NC(=O)c1ccccc1)c1ccccc1 is 0.8 or above.
Resp: false

Req: Confirm if z-score reported for the compound COc1cc(CO)cc(I)c1O[C@H]1C=C(C(=O)NCCO)C[C@@H](N(CC2CCCCC2)C(=O)c2cc3ccccc3oc2=O)[C@@H]1O is 0.8 or above.
Resp: true

Req: Confirm if z-score reported for the compound CCOC(=O)C1=CC[C@@H](c2ccccc2)N(S(=O)(=O)c2ccc(C)cc2)[C@H]1C is 0.8 or above.
Resp: false

Req: Confirm if z-score reported for the compound C=CCN(C(=O)C1N(c2ccc(CCO)cc2)C(=O)C2C(C(=O)O)C3C=CC21O3)C(C)(C)C (stereo not drawn) is 0.8 or above.
Resp: true

Req: Confirm if z-score reported for the compound [N-]=[N+]=NCc1ccccc1[C@H]1OC(c2ccc(OCCCO)cc2)=N[C@@]1(Cc1ccccc1N=[N+]=[N-])C(=O)NCc1ccccc1 is 0.8 or above.
Resp: false

Req: Confirm if z-score reported for the compound CC(C)CNC(=O)[C@@]1(C)c2ccccc2C(=O)N(Cc2ccc(OC(F)(F)F)cc2)[C@H]1c1ccc(CO)cc1 is 0.8 or above.
Resp: true

Req: Confirm if z-score reported for the compound C#CCNC(/C=C/c1ccccc1)CO (stereo not drawn) is 0.8 or above.
Resp: false
